The reader will find reported IC50 values listed item by item below.
molecular target: PIP4K2A (Homo sapiens); assay: Kinase Assay PIP4K2 A (Table 2); format: biochemical; design: 4 nM PIP4K2A (full length protein, SignalChem); purchased SignalChem; conditions: compounds listed under IC50 bins
Sequence (P48426 whole entry): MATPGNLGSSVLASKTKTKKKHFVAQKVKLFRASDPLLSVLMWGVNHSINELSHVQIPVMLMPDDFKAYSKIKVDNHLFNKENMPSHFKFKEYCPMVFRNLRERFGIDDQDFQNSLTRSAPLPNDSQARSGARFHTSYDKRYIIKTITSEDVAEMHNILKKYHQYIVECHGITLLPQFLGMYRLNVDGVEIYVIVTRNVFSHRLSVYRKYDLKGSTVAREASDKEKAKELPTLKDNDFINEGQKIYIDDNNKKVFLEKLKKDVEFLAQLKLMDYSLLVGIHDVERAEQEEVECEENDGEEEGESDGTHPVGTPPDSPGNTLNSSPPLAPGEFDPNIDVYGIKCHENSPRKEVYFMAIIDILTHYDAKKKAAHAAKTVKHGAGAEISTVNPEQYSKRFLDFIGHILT

Provide the documented IC50 with PIP4K2A (Homo sapiens) as the system for CN(C)C(=O)c1ccc(-c2ccc(Nc3cncc(NC(=O)CC#N)c3)nc2)cc1 [Example 122]
10 to 100 nM

// lookup IC50 | system=PIP4K2A (Homo sapiens) | key= Cc1ncccc1Nc1ccc(-c2ccc(C(=O)N(C)C)cc2)cn1 [Example 35]
> 1000 nM

API: value(readout= IC50, system= PIP4K2A (Homo sapiens), query= CC(C)N(c1cncc(Nc2ccc(-c3ccc(C(=O)N(C)C)cc3)cn2)c1)S(C)(=O)=O [Example 27] )
100 to 1000 nM

Which IC50 is reported with PIP4K2A (Homo sapiens) for this entry: O=C1CCCN1c1ccc(-c2ccc(Nc3cnc4c(c3)N(C(=O)C3(O)CC3)CCO4)nc2)cc1 [Example 233] ?
1 to 10 nM

----------
List of pIC50 values.
molecular target: PIP4K2A (Homo sapiens, UniProt P48426); assay: Kinase Assay PIP4K2 A (Table 2); type: biochemical; design: 4 nM PIP4K2A (full length protein, SignalChem); purchased SignalChem; conditions: compounds listed under IC50 bins
pIC50: −log10 of the molar value.

> print(dat)
                                        smi  metric.name   test.result
1  CC(C)(C)C(=O)N1CCOc2ncc(Nc3ccc(-c4ccc(N5CCCC5=O)cc4)cn3)cc21        pIC50  8.00 to 9.00
2  Cc1ccnnc1-c1ccc(-c2ccc(Nc3cnc4c(c3)N3C(=O)CC[C@H]3CO4)nc2)cc1        pIC50  8.00 to 9.00

Record request: pIC50 value, item "CN(Cc1ccccc1)C(=O)c1ccc(-c2ccc(Nc3cccnc3)nc2)cc1"
6.00 to 7.00

Returns the measured pIC50 for the input molecule. Input: "CN(C)C(=O)c1ccc(-c2ccc(Nc3cncc(NC(=O)c4cccc5[nH]cnc45)c3)nc2)cc1"
8.00 to 9.00

----------
target: PIP4K2A (Homo sapiens); experiment: ADP-glo kinase assay PIP4K 2A (Table 3); format: biochemical; parameters: made in house; host or cells: E. coli; conditions: compounds listed under IC50 bins
Sequence (P48426 whole entry, species assumed): as the sequence (P48426 whole entry) above
pIC50: −log10 of the molar value.
Measured pIC50, listed per entry for reference.

Examples with answers:
> print(dat)
                                   compound                     tgt   test.result
1  O=C(Nc1cncc(Nc2ccc(-c3ccc(N4CCCC4=O)cc3)cn2)c1)N1CCOC(C2CC2)C1 (centres unmarked)  PIP4K2A (Homo sapiens)  6.00 to 7.00
2  CN(C)C(=O)c1ccc(-c2ccc(Nc3cncc(NC(=O)c4cccc(NC(=O)OC(C)(C)C)c4)c3)nc2)cc1  PIP4K2A (Homo sapiens)  6.00 to 7.00
3  O=C1CCCN1c1ccc(-c2cnc(Nc3cnc4c(c3)N3C(=O)CC[C@H]3CO4)cc2C2CC2)cc1F  PIP4K2A (Homo sapiens)  8.00 to 9.00
4  CN(C)C(=O)c1ccc(-c2ccc(Nc3cncc(NC(=O)c4ccncc4)c3)nc2)cc1  PIP4K2A (Homo sapiens)  6.00 to 7.00
5  CN(C)C(=O)c1ccc(-c2ccc(Nc3cncc(NC(=O)c4cccc(NC(=O)CCOCCOCCN)c4)c3)nc2)cc1  PIP4K2A (Homo sapiens)  7.00 to 8.00

Looking for the measured pIC50 of "CN(C)C(=O)c1ccc(-c2ccc(Nc3cncc(NC(=O)CCc4ccccc4)c3)nc2)cc1" , can you help?
7.00 to 8.00

What value of measured pIC50 is listed for "O=C1CCCN1c1ccc(-c2ccc(Nc3cnc4c(c3)N3C(=O)CC[C@@H]3CO4)nc2)cc1F" ?
7.00 to 8.00

# pIC50 lookup, item "CN(C)C/C=C/C(=O)Nc1ccc(CCC(=O)Nc2cncc(Nc3ccc(-c4ccc(C(=O)N(C)C)cc4)cn3)c2)cc1"
7.00 to 8.00

Field request: pIC50 | item: "O=C1CCCN1c1ccc(-c2ccc(Nc3cnc4c(c3)N(C(=O)C3CC3)CCO4)nc2)cc1"
8.00 to 9.00

Give the measured pIC50 of "CN(C)C(=O)c1ccc(-c2ccc(Nc3cncc(NC(=O)CCc4cccc(NC(=O)CN)c4)c3)nc2)cc1" .
6.00 to 7.00
